Form field: CTG-3D luminescence at 96 h (one value per entry).
# Test system: HCI-008 (organoid from a HER2-enriched breast cancer xenograft)
# Protocol Notes: CTG-3D luminescence at 96 h relative to day-0 seeding control (ratio to day 0); higher = more growth / less cytotoxicity; PDxO 3D drug screen, 96 h, CTG-3D normalised to day-0 seeding control.
# Condition Summary: 1 µM; days in culture: 244
In your answer, state the number alone without any accompanying words.

Worked examples, 3 molecules total:
Chemical Smiles	CTG-3D luminescence at 96 h
O=C(/C=C/c1cccnc1)NCCCCC1CCN(C(=O)c2ccccc2)CC1	0.186
CC[C@H](NC(=O)[C@H](C)NC)C(=O)N1C[C@@H](O)C[C@H]1Cc1c(-c2[nH]c3cc(F)ccc3c2C[C@@H]2C[C@H](O)CN2C(=O)[C@H](CC)NC(=O)[C@H](C)NC)[nH]c2cc(F)ccc12	0.521
CNC(=O)c1cccc(-c2ccc3c(N4CCOC[C@@H]4C)nc(N4CCOC[C@@H]4C)nc3n2)c1	1.08

Query :: Entry under review: Nc1ccn([C@@H]2O[C@H](CO)[C@@H](O)C2(F)F)c(=O)n1 . Reported CTG-3D luminescence at 96 h?
Result :: 0.69

Query :: For CCN1CCN(Cc2ccc(Nc3ncc(F)c(-c4cc(F)c5nc(C)n(C(C)C)c5c4)n3)nc2)CC1 then?
Result :: 2.12

Query :: Also, CC(C)n1nc(-c2ccc3oc(N)nc3c2)c2c(N)ncnc21 please.
Result :: 0.511

====

CTG-3D luminescence at 96 h reference
# System: HCI-019 (organoid from a triple-negative breast cancer xenograft)
# Protocol Notes: CTG-3D luminescence at 96 h relative to day-0 seeding control (ratio to day 0); higher = more growth / less cytotoxicity; PDxO 3D drug screen, 96 h, CTG-3D normalised to day-0 seeding control.
# Condition Summary: 0.1 µM; days in culture: 131
Enter a number only.

Compound	Recorded Result
CCc1c2c(nc3ccc(O)cc13)-c1cc3c(c(=O)n1C2)COC(=O)[C@]3(O)CC [SN-38]	0.312
NC(=O)c1cccc2cn(-c3ccc([C@@H]4CCCNC4)cc3)nc12 [niraparib]	2.4
CS(=O)(=O)c1ccc(C(=O)Nc2ccc(Cl)c(-c3ccccn3)c2)c(Cl)c1 [vismodegib]	3.93
O=C(c1ccc(F)c(F)c1Nc1ccc(I)cc1F)N1CC(O)([C@@H]2CCCCN2)C1 [cobimetinib]	3.24
NC(=O)Nc1cc(-c2cccc(F)c2)sc1C(=O)N[C@H]1CCCNC1 [AZD7762]	2.99

Query :: Query (compound): Nc1ccn([C@@H]2O[C@H](CO)[C@@H](O)C2(F)F)c(=O)n1 [gemcitabine] ; field requested: CTG-3D luminescence at 96 h
Result :: 0.427

Query :: C=CC(=O)N1CCC[C@@H](n2nc(-c3ccc(Oc4ccccc4)cc3)c3c(N)ncnc32)C1 [ibrutinib] ?
Result :: 2.19

====

# System: HCI-001 (organoid from a triple-negative breast cancer xenograft)
# Protocol Notes: CTG-3D luminescence at 96 h relative to day-0 seeding control (ratio to day 0); higher = more growth / less cytotoxicity; PDxO 3D drug screen, 96 h, CTG-3D normalised to day-0 seeding control.
# Condition Summary: 0.00025 µM; days in culture: 327
Listing of recorded CTG-3D luminescence at 96 h by entry.

Worked cases, CTG-3D luminescence at 96 h given:
Molecule	Recorded Result
CCc1c2c(nc3ccc(O)cc13)-c1cc3c(c(=O)n1C2)COC(=O)[C@]3(O)CC	1.61
C=CCn1c(=O)c2cnc(Nc3ccc(N4CCN(C)CC4)cc3)nc2n1-c1cccc(C(C)(C)O)n1	1.49
O=C(O)C1(C(=O)O)CCC1.[NH2-].[NH2-].[Pt+2]	1.43
C[C@]12CC[C@@H]3c4ccc(O)cc4C[C@@H](CCCCCCCCC[S+]([O-])CCCC(F)(F)C(F)(F)F)[C@H]3[C@@H]1CC[C@@H]2O (some centres undefined)	1.68
NC1(C(=O)N[C@@H](CCO)c2ccc(Cl)cc2)CCN(c2nc[nH]c3nccc2-3)CC1	1.3
CC[C@H](NC(=O)[C@H](C)NC)C(=O)N1C[C@@H](O)C[C@H]1Cc1c(-c2[nH]c3cc(F)ccc3c2C[C@@H]2C[C@H](O)CN2C(=O)[C@H](CC)NC(=O)[C@H](C)NC)[nH]c2cc(F)ccc12	1.44
COc1cccc2c1C(=O)c1c(O)c3c(c(O)c1C2=O)C[C@@](O)(C(=O)CO)C[C@@H]3O[C@H]1C[C@H](N)[C@H](O)[C@H](C)O1	1.49
CS(=O)(=O)c1ccc(C(=O)Nc2ccc(Cl)c(-c3ccccn3)c2)c(Cl)c1	1.61

Now consider a different molecule.
Query :: What does the data say about its CTG-3D luminescence at 96 h? Entry: CC1(C)CCC(c2ccc(Cl)cc2)=C(CN2CCN(c3ccc(C(=O)NS(=O)(=O)c4ccc(N[C@H](CCN5CCOCC5)CSc5ccccc5)c(S(=O)(=O)C(F)(F)F)c4)cc3)CC2)C1
Result :: 1.59

====

# System: HCI-024 (organoid from a breast cancer xenograft)
# Protocol Notes: CTG-3D luminescence at 96 h relative to day-0 seeding control (ratio to day 0); higher = more growth / less cytotoxicity; PDxO 3D drug screen (set 2), 96 h, CTG-3D normalised to day-0 seeding control.
# Condition Summary: 625 fM; days in culture: 202
Parameter CTG-3D luminescence at 96 h: see the listing below.

Chemical Smiles	CTG-3D luminescence at 96 h
CC(=O)c1c(C)c2cnc(Nc3ccc(N4CCNCC4)cn3)nc2n(C2CCCC2)c1=O	1.22
CCOc1ccn(-c2ccc(F)cc2)c(=O)c1C(=O)Nc1ccc(Oc2ccnc(N)c2Cl)c(F)c1	1.61

Next molecule, CTG-3D luminescence at 96 h to be filled in.
Query :: Form field: reported CTG-3D luminescence at 96 h of O=C(c1cc(Cc2n[nH]c(=O)c3ccccc23)ccc1F)N1CCN(C(=O)C2CC2)CC1
Result :: 1.05

====

# Test system: HCI-025 (organoid from a breast cancer xenograft)
# Protocol Notes: CTG-3D luminescence at 96 h relative to day-0 seeding control (ratio to day 0); higher = more growth / less cytotoxicity; PDxO 3D drug screen (set 2), 96 h, CTG-3D normalised to day-0 seeding control.
# Condition Summary: 10 µM; days in culture: 212
Measurement Type: CTG-3D luminescence at 96 h
Response field accepts a number only; no unit should be typed.

Molecule	Measurement Type	Recorded Result
CO[C@H]1C[C@@H]2CC[C@@H](C)[C@@](O)(O2)C(=O)C(=O)N2CCCC[C@H]2C(=O)O[C@H]([C@H](C)C[C@@H]2CC[C@@H](OCCO)[C@H](OC)C2)CC(=O)[C@H](C)/C=C(\C)[C@@H](O)[C@@H](OC)C(=O)[C@H](C)C[C@H](C)/C=C/C=C/C=C/1C	CTG-3D luminescence at 96 h	0.167
CCOc1ccn(-c2ccc(F)cc2)c(=O)c1C(=O)Nc1ccc(Oc2ccnc(N)c2Cl)c(F)c1	CTG-3D luminescence at 96 h	1.75
COc1cccc2c1C(=O)c1c(O)c3c(c(O)c1C2=O)C[C@@](O)(C(=O)CO)C[C@@H]3O[C@H]1C[C@H](N)[C@@H](O)[C@H](C)O1 [epirubicin]	CTG-3D luminescence at 96 h	0.0162
Cc1c(CN2CCN(C(=O)[C@H](C)O)CC2)sc2c(N3CCOCC3)nc(-c3cnc(N)nc3)nc12	CTG-3D luminescence at 96 h	0.218
CO[C@H]1C[C@@H]2CC[C@@H](C)[C@@](O)(O2)C(=O)C(=O)N2CCCC[C@H]2C(=O)O[C@H]([C@H](C)C[C@@H]2CC[C@@H](O)[C@H](OC)C2)CC(=O)[C@H](C)/C=C(\C)[C@@H](O)[C@@H](OC)C(=O)[C@H](C)C[C@H](C)/C=C/C=C/C=C/1C	CTG-3D luminescence at 96 h	1.15

Next, consider the following molecule.
Query :: State its CTG-3D luminescence at 96 h on HCI-025: CS(=O)(=O)CCNCc1ccc(-c2ccc3ncnc(Nc4ccc(OCc5cccc(F)c5)c(Cl)c4)c3c2)o1
Result :: 0.527

====

# System: HCI-024
# Protocol Notes: CTG-3D luminescence at 96 h relative to day-0 seeding control (ratio to day 0); higher = more growth / less cytotoxicity; PDxO 3D drug screen (set 2), 96 h, CTG-3D normalised to day-0 seeding control.
# Condition Summary: 0.1 µM; days in culture: 254
Reported CTG-3D luminescence at 96 h by item:
Respond using a number only.

Example cases with answers are listed next.
Compound	Recorded Result
CC(=O)O[C@@]12CO[C@@H]1C[C@H](O)[C@@]1(C)C(=O)[C@H](O)C3=C(C)[C@@H](OC(=O)[C@H](O)[C@@H](NC(=O)OC(C)(C)C)c4ccccc4)C[C@@](O)([C@@H](OC(=O)c4ccccc4)[C@H]21)C3(C)C [docetaxel]	1.11
CS(=O)(=O)CCNCc1ccc(-c2ccc3ncnc(Nc4ccc(OCc5cccc(F)c5)c(Cl)c4)c3c2)o1 [lapatinib]	2.25
C[C@@H](Nc1cc(F)cc(F)c1)c1cc(C(=O)N(C)C)cc2c(=O)cc(N3CCOCC3)oc12 [AZD-8186]	2.04

Proceed to the following item.
Query :: What CTG-3D luminescence at 96 h value was documented for this compound, CO[C@H]1C[C@@H]2CC[C@@H](C)[C@@](O)(O2)C(=O)C(=O)N2CCCC[C@H]2C(=O)O[C@H]([C@H](C)C[C@@H]2CC[C@@H](O)[C@H](OC)C2)CC(=O)[C@H](C)/C=C(\C)[C@@H](O)[C@@H](OC)C(=O)[C@H](C)C[C@H](C)/C=C/C=C/C=C/1C [rapamycin] ?
Result :: 0.879

The reported numbers originate from the supplement of paper PMC8882468.
